test system: Leishmania donovani; assay: Antileishmanial activity against Leishmania donovani LV9 promastigotes after 96 hrs by MTT assay; assay type: functional, organism-based; settings: LV9, 96 h
measurement_label: log10(IC50) (log10 of the value in µM)
Answers are given as log10 of IC50 in µM.

Consider the worked cases shown below.
| molecule | log10(IC50) |
| --- | --- |
| COc1ccc([C@@H]2COc3c(ccc4c3C=CC(C)(C)O4)C2)c(OC)c1O [GLYASPERIN H] | 1.40 |
| COc1ccc([C@@H]2COc3c(ccc4occc34)C2)c(OC)c1O [SMIRANICIN] | 1.36 |
| C/C=C/c1cc(O)c(OC)c(OC)c1 | 2.60 |
| C/C=C/c1cc(OC)c(OC)c(O)c1OC | 2.37 |
| C/C=C/C1=C(OC)C(=O)C(OC)=C(OC)C1=O | 1.99 |

Now for another entry.
q: Observed log10(IC50) on Leishmania donovani for COc1ccc([C@@H]2COc3c(ccc(O)c3CC=C(C)C)C2)c(OC)c1O , please.
a: 0.84
